Assay: PK brain permeability in C57BL/6 mice after single oral gavage
Type: in vivo
Conditions: male, C57BL/6, mouse, brain/plasma, oral 10 mg/kg, 2 hours post dose, read-out: Kpu,u (unbound partitioning coefficient, Cb,u/Cp,u)
readoutKind: Kpu,u (unbound brain/plasma partition coefficient) at 2 h

{"columns": ["compound", "measurement"],
 "data": [
  ["O=C(N[C@H]1CC[C@H](NCC(F)F)CC1)c1cc(C2CC2)nc(-n2ccnc2)n1 [Example 3]", 0.48],
  ["Cc1cc(C(=O)N[C@H]2CC[C@H](N3CCC(F)(F)C3)CC2)nc(-n2ccnc2)n1 [Example 10]", 0.32],
  ["O=C(N[C@H]1CC[C@H](NCC(F)(F)F)CC1)c1nc(-n2ccnc2)nc2cc[nH]c12 [Example 29, reference compound]", 0.18],
  ["Cc1cc(C(=O)N[C@H]2CC[C@](C)(O)CC2)nc(-n2ccnc2)n1 [Example 18, reference compound]", 0.03],
  ["Cc1cc(C(=O)N[C@H]2CC[C@H](OC(F)F)CC2)nc(-n2ccnc2)n1 [Example 17, reference compound]", 0.08],
  ["Cc1cc(C(=O)N[C@H]2CC[C@H](NC(C)(C)C(F)(F)F)CC2)nc(-n2ccnc2)n1 [Example 21]", 0.4],
  ["Cc1cc(C(=O)N[C@H]2CC[C@H](NCC(F)(F)F)CC2)nc(-n2ccnc2)n1 [Example 1]", 1.33],
  ["Cc1cc(C(=O)N[C@H]2CC[C@H](NCC(F)F)CC2)nc(-n2ccnc2)n1 [Example 2]", 0.65]
]}

====

Molecular target: Recombinant human CD38 (Homo sapiens (Human), UniProt P28907)
Sequence (P28907 whole entry): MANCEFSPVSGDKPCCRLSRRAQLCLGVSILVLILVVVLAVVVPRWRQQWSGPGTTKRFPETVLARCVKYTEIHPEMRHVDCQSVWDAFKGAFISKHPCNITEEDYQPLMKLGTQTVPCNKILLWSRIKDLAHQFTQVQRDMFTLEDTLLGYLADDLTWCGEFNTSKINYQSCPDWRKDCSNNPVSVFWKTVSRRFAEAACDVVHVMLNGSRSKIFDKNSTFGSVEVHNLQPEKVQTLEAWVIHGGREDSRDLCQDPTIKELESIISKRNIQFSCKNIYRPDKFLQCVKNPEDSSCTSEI
Experiment: Human CD38 hydrolase assay (fluorescence, ε-NAD substrate)
Conditions: recombinant human CD38 0.8 nM, 4 μM ε-NAD, 30 min preincubation at 25° C., pH 7.4
pIC50: −log10 of the molar value.
readoutKind: pIC50

{"columns": ["structureSmiles", "readoutKind", "measurement"],
 "data": [
  ["Cc1cc(C(=O)N[C@H]2CC[C@H](NC(C)(C)C(F)(F)F)CC2)nc(-n2ccnc2)n1", "pIC50", "≥ 7.00"],
  ["CCN[C@H]1CC[C@H](NC(=O)c2cc(C)nc(-n3ccnc3)n2)CC1", "pIC50", "≥ 7.00"],
  ["O=C(N[C@H]1CC[C@H](NCC(F)F)CC1)c1cc(C2CC2)nc(-n2ccnc2)n1", "pIC50", "≥ 7.40"],
  ["CCc1cc(C(=O)N[C@H]2CC[C@H](NCC(F)(F)F)CC2)nc(-n2ccnc2)n1", "pIC50", "≥ 7.00"],
  ["Cc1cc(C(=O)N[C@H]2CC[C@H](NCC(F)F)CC2)nc(-c2cn[nH]c2)n1", "pIC50", "≥ 5.00"],
  ["Cc1cc(C(=O)N[C@H]2CC[C@H](N[C@@H](C)C(F)(F)F)CC2)nc(-n2ccnc2)n1", "pIC50", "≥ 7.40"],
  ["Cc1cc(C(=O)N[C@H]2CC[C@H](N3CC[C@H](F)C3)CC2)nc(-n2ccnc2)n1", "pIC50", "≥ 7.00"],
  ["Cc1cc(C(=O)N[C@H]2CC[C@H](NCC(F)(F)F)CC2)nc(-c2cncs2)n1", "pIC50", "≥ 6.00"]
]}

====

Test: PK brain permeability in C57BL/6 mice after single oral gavage
Assay type: in vivo
Settings: male, C57BL/6, mouse, plasma, po, 10 mg/kg, 2 hours post dose, total corrected for unbound fraction in plasma, read-out: free plasma conc.
Below, each entry is listed with its recorded log10 of concentration at 2 h.
readoutKind: log10 of concentration at 2 h (log10 of the value in nM)

{"columns": ["compound", "log10 of concentration at 2 h"],
 "data": [
  ["Cc1cc(C(=O)N[C@H]2CC[C@](C)(O)CC2)nc(-n2ccnc2)n1 [Example 18, reference compound]", 3.52],
  ["Cc1cc(C(=O)N[C@H]2CC[C@H](OC(F)F)CC2)nc(-n2ccnc2)n1 [Example 17, reference compound]", 2.06],
  ["Cc1cc(C(=O)N[C@H]2CC[C@H](NC(C)(C)C(F)(F)F)CC2)nc(-n2ccnc2)n1 [Example 21]", 2.69],
  ["Cc1cc(C(=O)N[C@H]2CC[C@H](N3CCC(F)(F)C3)CC2)nc(-n2ccnc2)n1 [Example 10]", 3.21],
  ["Cc1cc(C(=O)N[C@H]2CC[C@H](NCC(F)F)CC2)nc(-n2ccnc2)n1 [Example 2]", 3.33],
  ["O=C(N[C@H]1CC[C@H](NCC(F)F)CC1)c1cc(C2CC2)nc(-n2ccnc2)n1 [Example 3]", 2.67],
  ["Cc1cc(C(=O)N[C@H]2CC[C@H](NCC(F)(F)F)CC2)nc(-n2ccnc2)n1 [Example 1]", 3.45],
  ["O=C(N[C@H]1CC[C@H](NCC(F)(F)F)CC1)c1nc(-n2ccnc2)nc2cc[nH]c12 [Example 29, reference compound]", 3.10]
]}

====

Molecular target: Recombinant human CD38 (Homo sapiens (Human))
Assay: Human CD38 hydrolase assay (fluorescence, ε-NAD substrate)
Conditions: recombinant human CD38 0.8 nM, 4 μM ε-NAD, 30 min preincubation at 25° C., pH 7.4
pIC50: −log10 of the molar value.
readoutKind: pIC50

{"columns": ["molecule", "readoutKind", "measurement"],
 "data": [
  ["Cc1cc(C(=O)N[C@H]2CC[C@H](CNCC(F)(F)F)CC2)nc(-n2ccnc2)n1 [Example 25]", "pIC50", "≥ 7.40"],
  ["O=C(N[C@H]1CC[C@H](NCC(F)F)CC1)c1cc(C2CC2)cc(-n2ccnc2)n1 [Example 16]", "pIC50", "≥ 6.00"],
  ["Cc1cc(C(=O)N[C@H]2CC[C@H](C(=O)NCC(F)(F)F)CC2)nc(-n2ccnc2)n1 [Example 26]", "pIC50", "≥ 7.40"]
]}

====

Assay: PK brain permeability in C57BL/6 mice after single oral gavage
Format: in vivo
Conditions: male, C57BL/6, mouse, brain, po, 10 mg/kg, 2 hours post dose, read-out: total brain conc.

{"columns": ["molecule", "endpointUnit", "concentration at 2 h"],
 "data": [
  ["Cc1cc(C(=O)N[C@H]2CC[C@H](N3CCC(F)(F)C3)CC2)nc(-n2ccnc2)n1", "nM", 5200],
  ["Cc1cc(C(=O)N[C@H]2CC[C@H](NC(C)(C)C(F)(F)F)CC2)nc(-n2ccnc2)n1", "nM", 5470],
  ["Cc1cc(C(=O)N[C@H]2CC[C@](C)(O)CC2)nc(-n2ccnc2)n1 [Example 18, reference compound]", "nM", 430],
  ["O=C(N[C@H]1CC[C@H](NCC(F)(F)F)CC1)c1nc(-n2ccnc2)nc2cc[nH]c12 [Example 29, reference compound]", "nM", 1770],
  ["Cc1cc(C(=O)N[C@H]2CC[C@H](OC(F)F)CC2)nc(-n2ccnc2)n1 [Example 17, reference compound]", "nM", 77],
  ["Cc1cc(C(=O)N[C@H]2CC[C@H](NCC(F)F)CC2)nc(-n2ccnc2)n1", "nM", 2190],
  ["O=C(N[C@H]1CC[C@H](NCC(F)F)CC1)c1cc(C2CC2)nc(-n2ccnc2)n1", "nM", 1660],
  ["Cc1cc(C(=O)N[C@H]2CC[C@H](NCC(F)(F)F)CC2)nc(-n2ccnc2)n1", "nM", 5510]
]}
